Values from patent US20250296971A1

target: GIPR (CHO-K1-hGIPR cells) (Homo sapiens, UniProt P48546); construct: host or cells: CHO-K1; experiment: FACS binding assay; conditions: competition with 20 nM GIP-057, 4° C. for 1 hour, read-out: pIC50 Category (converted)
Sequence (P48546 22-466): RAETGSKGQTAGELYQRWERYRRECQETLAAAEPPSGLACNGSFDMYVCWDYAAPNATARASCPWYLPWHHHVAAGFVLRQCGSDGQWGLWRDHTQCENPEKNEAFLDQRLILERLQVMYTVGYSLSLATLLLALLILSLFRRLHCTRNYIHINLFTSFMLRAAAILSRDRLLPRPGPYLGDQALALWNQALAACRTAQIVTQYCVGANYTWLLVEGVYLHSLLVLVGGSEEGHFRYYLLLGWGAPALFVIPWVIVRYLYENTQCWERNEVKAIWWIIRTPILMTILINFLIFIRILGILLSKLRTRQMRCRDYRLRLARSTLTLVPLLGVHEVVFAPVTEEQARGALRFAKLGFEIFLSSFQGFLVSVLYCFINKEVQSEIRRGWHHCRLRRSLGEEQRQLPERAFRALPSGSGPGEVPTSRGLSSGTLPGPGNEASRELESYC
*1 amine or outer side, *2 acyl side, *3 side chain or, on linkers, in order; H or OH if unused. Where a SMILES comes first, the peptide text is derived from it. Bridges are numbered along the chain shown (N, C = ends). [ ]: non-standard residue; d: D form. The star is where a group is joined. Pro(trans-4-NH2) = O=C([C@@H]1C[C@@H](N[*:3])CN1[*:1])[*:2]; DOTA = O=C(O)CN1CCN(CC(=O)O)CCN(CC(=O)*)CCN(CC(=O)O)CC1; Maleimide(3,4-diyl) = O=C1NC(=O)C([*:2])=C1[*:1]; Trp(5-Cl) = N[C@@H](Cc1c[nH]c2ccc(Cl)cc12)C(=O)O; 1Nal = N[C@@H](Cc1cccc2ccccc12)C(=O)O; mXylylene = c1cc(C[*:1])cc(C[*:2])c1; Hyp = O=C(O)[C@@H]1C[C@@H](O)CN1; hLeu = CC(C)CC[C@H](N)C(=O)O; hCys = N[C@@H](CCS)C(=O)O; Nle = CCCC[C@H](N)C(=O)O; Thp = NC1(C(=O)O)CCOCC1; Aib = CC(C)(N)C(=O)O
What IC50 was measured for each of the following?

Completed entries (count: 2):
MOLECULE: CC[C@H](C)[C@@H]1NC(=O)[C@H](CC(C)C)NC(=O)C(C)(C)NC(=O)[C@@H](NC(=O)[C@H](CCC(C)C)NC(=O)[C@H](CCC(=O)O)NC(=O)[C@@H]2C[C@@H](NC(=O)CN3CCN(CC(=O)O)CCN(CC(=O)O)CCN(CC(=O)O)CC3)CN2C(=O)[C@H](Cc2cccc3ccccc23)NC(=O)[C@H](Cc2c[nH]c3ccccc23)NC(=O)[C@H](CC(=O)O)NC(C)=O)CSCc2cccc(c2)CSC[C@@H](C(N)=O)NC1=O [GIP-394] (Ac-DW[1Nal][Pro(trans-4-NH2)](DOTA)E[hLeu]C[Aib]LIC-NH2; linker 7-11 via mXylylene)
SYSTEM NAME: GIPR (CHO-K1-hGIPR cells) (Homo sapiens, UniProt P48546)
MEASURED RESULT: 10 to 79.4 nM
//
MOLECULE: CC[C@H](C)[C@@H]1NC(=O)[C@H](CC(C)C)NC(=O)C2(CCOCC2)NC(=O)[C@@H](NC(=O)[C@@H](CC(C)C)NC(=O)[C@H](CCC(=O)O)NC(=O)[C@@H]2C[C@@H](O)CN2C(=O)[C@H](Cc2c[nH]c3ccc(Cl)cc23)NC(=O)[C@H](Cc2c[nH]c3ccccc23)NC(=O)[C@H](CC(=O)O)NC(C)=O)CSC2=C(SCC[C@@H](C(N)=O)NC1=O)C(=O)NC2=O [GIP-361] (Ac-DW[Trp(5-Cl)][Hyp]E[dL]C[Thp]LI[hCys]-NH2; linker 7-11 via Maleimide(3,4-diyl))
SYSTEM NAME: GIPR (CHO-K1-hGIPR cells) (Homo sapiens, UniProt P48546)
MEASURED RESULT: < 10 nM

Provide each entry's IC50 from the list below.
1. CC[C@H](C)[C@@H]1NC(=O)[C@H](CC(C)C)NC(=O)[C@H](C)NC(=O)[C@@H](NC(=O)[C@H](CC(C)C)NC(=O)[C@H](CCC(=O)O)NC(=O)[C@@H]2CCCN2C(=O)[C@H](Cc2c[nH]c3ccccc23)NC(=O)[C@H](Cc2c[nH]c3ccccc23)NC(=O)[C@@H](CC(=O)O)NC(=O)[C@H](Cc2ccc(O)cc2)NC(=O)[C@@H](N)CCSC)CSCc2cccc(c2)CSC[C@@H](C(N)=O)NC1=O [GIP-307] (H-MY[dD]WWPELCALIC-NH2; linker 9-13 via mXylylene)
2. CCCC[C@H](NC(=O)[C@H](CCC(=O)O)NC(=O)[C@@H]1CCCN1C(=O)[C@H](Cc1cccc2ccccc12)NC(=O)[C@H](Cc1c[nH]c2ccccc12)NC(=O)[C@H](CC(=O)O)NC(C)=O)C(=O)N[C@H]1CSCc2cccc(c2)CSC[C@@H](C(N)=O)NC(=O)[C@H]([C@@H](C)CC)NC(=O)[C@H](CC(C)C)NC(=O)C(C)(C)NC1=O [GIP-346] (Ac-DW[1Nal]PE[Nle]C[Aib]LIC-NH2; linker 7-11 via mXylylene)
3. CC[C@H](C)[C@@H]1NC(=O)[C@H](CC(C)C)NC(=O)C(C)(C)NC(=O)[C@@H](NC(=O)[C@H](CCC(C)C)NC(=O)[C@H](CCC(=O)O)NC(=O)[C@@H]2CCCN2C(=O)[C@H](Cc2cccc3ccccc23)NC(=O)[C@H](Cc2c[nH]c3ccccc23)NC(=O)[C@H](CC(=O)O)NC(C)=O)CSCc2cccc(c2)CSC[C@@H](C(N)=O)NC1=O [GIP-315] (Ac-DW[1Nal]PE[hLeu]C[Aib]LIC-NH2; linker 7-11 via mXylylene)

1: 100 to 794 nM; 2: > 1000 nM; 3: 100 to 794 nM
